Molecular target: Pro-neuregulin-1, membrane-bound isoform (Homo sapiens)
Assay: NRG1 binders on small-molecule microarrays, primary screen, psychiatric disease protein project, biochemical, small-molecule microarray, fluorescence 635/667 (AID 1075);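 note: score combines 667 nm spot fluorescence with signal to noise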
Conditions: NRG1 binding, 635 nm fluorescence, higher = more signal
Measured metric: composite z-score

# Compound, System, Value reported
records = [
    ("C=C[C@@H](OC)[C@H](OC(=O)Nc1ccc(SC)cc1)c1ccc(OCCO)cc1", "Pro-neuregulin-1, membrane-bound isoform (Homo sapiens)", 1.43),
    ("COc1ccc([Si](C)(C)[C@H]2[C@H](CCO)O[C@@]3(C(=O)N(Cc4ccccc4)c4ccc(N5C(=O)c6ccccc6Oc6ccccc65)cc43)[C@@H]2C)cc1", "Pro-neuregulin-1, membrane-bound isoform (Homo sapiens)", 0.777),
    ("CN1C(=O)C2C=CC(C(O)c3ccc(F)cc3)N(NC(=O)OC(C)(C)C)C2C1=O (stereo not given)", "Pro-neuregulin-1, membrane-bound isoform (Homo sapiens)", 1.68),
    ("C[C@]1(C(=O)O)c2ccccc2C(=O)N(Cc2ccc(OC(F)(F)F)cc2)[C@H]1c1ccc(CO)cc1", "Pro-neuregulin-1, membrane-bound isoform (Homo sapiens)", 0.787),
    ("COCCOC(=O)N1C(=O)[C@@]2(c3cc(C#CCNC(N)=O)ccc31)[C@H](c1ccc(OCCO)cc1)N1[C@H](c3ccccc3)[C@H](c3ccccc3)OC(=O)[C@H]1[C@@H]2C(N)=O", "Pro-neuregulin-1, membrane-bound isoform (Homo sapiens)", 0.897),
]
